Percent Effect listing for selected compounds.
test system: Wolbachia pipientis; assay: Anti-Wolbachia Cell-Based Screen; type: functional; design: scale not given: in the data most compounds retested in dose-response had high values; conditions: 5 µM
Hit rate of the full screen: of about 48,000 compounds, about 13,000 (27%) showed an effect of 50% or more. This is one part of the list.
Metric: Percent Effect (%)

Cc1sc2ncc(-c3ccnc(NC4CCN(C)CC4)n3)c(=O)n2c1C: 102.6
C[C@@H]1CN(C(=O)c2ccc(=O)[nH]c2)CC[C@@]1(O)C1CCOCC1: -4.844
CC(C)c1nc(CN2CCN(CC3CCCO3)CC2)cs1 (stereo unspecified): 2.342
CCOc1cccc(C2CC(=O)NCc3nc(N4CCCC4)sc32)c1 (stereo unspecified): -6.785
CC(C)CC(=O)NS(=O)(=O)c1ccc(C#N)cc1C(F)(F)F: 112.6
O=C(C1CCOCC1)N1C[C@H]2CC[C@@H]1CN(C1Cc3ccccc3C1)C2: 13.64
CCNC(=O)N1CCC(Nc2nccc(NCC)n2)CC1: -9.692
O=S(=O)(NCCc1c[nH]c2cc(F)ccc12)C1CCOC1 (stereo unspecified): 22.23
CCOc1cccc(C2CC(=O)NCc3nc(N(C)C)sc32)c1 (stereo unspecified): 5.085
CCOCC1CN(CCOc2ccc(Cl)cc2)Cc2c1cnn2C.O=C(O)C(F)(F)F.O=C(O)C(F)(F)F (stereo unspecified): -5.642
O=C(c1ccco1)N1CCCn2cnc(COCC3CC3)c2C1: -7.899
CC(C)(C)c1coc([C@@H]2COCCN2Cc2c[nH]c3ccccc23)n1: -5.354
CCn1ncc2c1CN(C(=O)Cc1ccccn1)CC2COC.O=C(O)C(F)(F)F.O=C(O)C(F)(F)F (stereo unspecified): -10.79
C[C@@H]1CN(C2Cc3ccccc3C2)CC[C@@]1(O)C1CCOCC1: 82.39
Cc1cc(=O)n(CCNS(=O)(=O)c2cccc(C(F)(F)F)c2)cn1: 121.6
CCn1ncnc1C1CC(=O)NCc2nc3ccccn3c21 (stereo unspecified): -4.231
O=c1ccc(-n2ccnc2)nn1CCNS(=O)(=O)c1ccc(F)c(Cl)c1: 15.65
Cc1ccc(C)c(S(=O)(=O)NC(=O)COc2cccc(C#N)c2)c1: 12.25
C[C@@H]1CN(C2CCCCC2)CC[C@@]1(O)C1CCOCC1: 98.71
CCn1ncc2c1CN(CCc1cccc(Cl)c1)CC2COC.O=C(O)C(F)(F)F.O=C(O)C(F)(F)F (stereo unspecified): 128.6
Cc1cc(=O)n(CCNS(=O)(=O)c2ccc(F)c(Cl)c2)cn1: 79.22
C[C@@H]1CN(C2CCN(c3ccccc3)CC2)CC[C@@]1(O)C1CCOCC1: 103.2
O=C1N(Cc2cccc(F)c2F)CCCC1(O)CNCC1CCCCC1 (stereo unspecified): -14.65
O=C(NCC1(O)CCOC1)NCC1(c2ccccc2Cl)CC1 (stereo unspecified): 3.661
O=C(NCC1CC1)c1cc(Cl)c2c(c1)OCCCO2: -14.68
CCCn1ccnc1SCCNS(=O)(=O)c1ccccc1: 8.595
Cc1cnc(C)c(N2CCN(Cc3ccc(C)c(C)c3)CC2)n1: -24.43
CC(C)(Cn1cnc(-c2ccccc2)c1-c1ccco1)N1CCOCC1: 0.7687
O=C(O)c1cc(-n2cc3c(n2)CCC3)cc(S(=O)(=O)NC2CCCC2)c1: -14.64
COCc1ncn2c1CN(C(=O)c1ccc[nH]1)CC2: 111
CC(C)c1noc(C(C)S(=O)(=O)Cc2nc(C3CC3)no2)n1 (stereo unspecified): 8.57
C[C@@H]1CN(C2CCN(c3ccccc3F)CC2)CC[C@]1(C)O: -26.42
COCc1ncn2c1CN(C(=O)c1ccco1)CC2: 113.2
CCOc1cccc(C2CC(=O)NCc3nc(N)sc32)c1 (stereo unspecified): 2.31
N#Cc1cccc(S(=O)(=O)NC(=O)COCC(F)(F)F)c1: -9.311
C=Cc1cccc(CN2C[C@H]3CC[C@@H]2CN(Cc2c(C)noc2C)C3)c1: -8.639
